Reference source: patent US11786534B2

- targetOrTestSystem: human EGFR (L858R/C797S) (Homo sapiens, UniProt P00533, C797S/L858R)
- Construct: purchased SignalChem
- Sequence (P00533 25-1210 C797S/L858R): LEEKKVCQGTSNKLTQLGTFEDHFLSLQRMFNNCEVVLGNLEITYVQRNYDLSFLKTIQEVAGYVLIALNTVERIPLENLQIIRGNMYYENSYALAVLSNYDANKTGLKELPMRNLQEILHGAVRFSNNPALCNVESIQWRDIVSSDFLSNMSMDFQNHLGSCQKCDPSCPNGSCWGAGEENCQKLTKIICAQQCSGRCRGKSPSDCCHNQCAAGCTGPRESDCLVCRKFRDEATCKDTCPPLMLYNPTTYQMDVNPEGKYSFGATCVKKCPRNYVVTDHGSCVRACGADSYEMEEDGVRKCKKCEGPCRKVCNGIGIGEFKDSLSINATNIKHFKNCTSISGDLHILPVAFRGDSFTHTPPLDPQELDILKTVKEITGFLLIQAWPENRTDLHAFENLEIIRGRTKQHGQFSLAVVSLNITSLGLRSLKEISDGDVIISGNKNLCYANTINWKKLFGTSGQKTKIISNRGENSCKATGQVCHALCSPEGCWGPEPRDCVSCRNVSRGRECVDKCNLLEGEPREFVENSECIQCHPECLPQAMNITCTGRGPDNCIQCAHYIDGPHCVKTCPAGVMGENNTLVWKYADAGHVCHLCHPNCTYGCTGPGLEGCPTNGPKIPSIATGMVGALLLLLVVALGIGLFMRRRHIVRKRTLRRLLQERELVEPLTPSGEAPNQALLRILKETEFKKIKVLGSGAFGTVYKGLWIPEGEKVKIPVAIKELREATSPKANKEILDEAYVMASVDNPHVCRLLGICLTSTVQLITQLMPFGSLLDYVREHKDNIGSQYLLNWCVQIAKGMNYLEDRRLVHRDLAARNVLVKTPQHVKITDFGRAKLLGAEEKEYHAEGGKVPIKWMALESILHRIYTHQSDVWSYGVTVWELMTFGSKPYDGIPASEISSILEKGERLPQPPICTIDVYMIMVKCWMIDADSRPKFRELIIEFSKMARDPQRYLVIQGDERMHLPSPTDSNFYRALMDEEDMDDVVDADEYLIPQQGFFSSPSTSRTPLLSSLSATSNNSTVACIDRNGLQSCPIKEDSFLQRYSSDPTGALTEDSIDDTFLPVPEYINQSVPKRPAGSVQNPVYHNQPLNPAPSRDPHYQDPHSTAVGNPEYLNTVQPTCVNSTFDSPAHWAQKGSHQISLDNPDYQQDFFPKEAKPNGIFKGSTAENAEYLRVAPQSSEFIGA
- procedureText: Inhibitory activity against EGFR (L858R/C797S) kinase
- Type: biochemical
- conditionSummary: Test Example 1, Table 5; ATP 4 μM, 90 minutes
- Procedure: 4) Measurement of inhibitory activity against EGFR (L858R/C797S) kinase The compounds of the present invention were measured for their inhibitory activity aeainst EGFR (L858R/C797S) kinase activity. […] In accordance with the same procedures as shown in 4) in Test Example 1, the compounds of the present invention were measured for their inhibitor activity against. […]
pIC50: −log10 of the molar value.
measureName: pIC50

* C#Cc1c(-c2cnc3ccccc3c2)c2c(N)ncnc2n1C12CCC(NC(=O)c3ccnn3C3CC3)(CC1)C2 | 8.92
* C#Cc1c(-c2cnc3ccccc3c2)c2c(N)ncnc2n1C12CCC(N(C)C(=O)c3ncco3)(CC1)C2 | 8.47
* C#Cc1c(-c2cnc3ccccc3c2)c2c(N)ncnc2n1C12CCC(NC(=O)c3nccn4ccnc34)(CC1)C2 | 9.37
* C#Cc1c(-c2cnc3ccccc3c2)c2c(N)ncnc2n1C12CCC(NC(=O)c3cncnc3)(CC1)C2 | 9.34
* C#Cc1c(-c2cnc3ccccc3c2)c2c(N)ncnc2n1C12CCC(N3CCOCC3)(CC1)C2 | 9.00
* C#Cc1c(-c2cnc3ccccc3c2)c2c(N)ncnc2n1C12CCC(CNCCF)(CC1)C2 | 8.55
* C#Cc1c(-c2cnc3ccccc3c2)c2c(N)ncnc2n1C12CCC(NC(=O)C(F)F)(CC1)C2 | 8.62
* C#Cc1c(-c2cnc3ccccc3c2)c2c(N)ncnc2n1C12CCC(NC(=O)c3cnc(Cl)cn3)(CC1)C2 | 9.00
* C#Cc1c(-c2cnc3ccccc3c2)c2c(N)ncnc2n1C12CCC(NC(=O)c3ncco3)(CC1)C2 | 9.37
* C#Cc1c(-c2cnc3ccccc3c2)c2c(N)ncnc2n1C12CCC(NC(C)=O)(CC1)C2 | 8.85
* C#Cc1c(-c2cnc3ccccc3c2)c2c(N)ncnc2n1C12CCC(NC(=O)COC)(CC1)C2 | 8.77
* C#Cc1c(-c2cnc3ccccc3c2)c2c(N)ncnc2n1C12CCC(NC(=O)c3cnnn3C)(CC1)C2 | 9.46
* C#Cc1c(-c2cnc3ccccc3c2)c2c(N)ncnc2n1C12CCC(CNC(=O)c3cnc(C)cn3)(CC1)C2 | 8.89
* C#Cc1c(-c2cnc3ccccc3c2)c2c(N)ncnc2n1C12CCC(NC(=O)c3cnc(C)cn3)(CC1)C2 | 9.16
* C=CC(=O)N1CC[C@@H](n2cc(-c3cnc4ccccc4c3)c3c(N)ncnc32)C1 [Comparative Example A, reference compound] | 6.73

----------
- targetOrTestSystem: human EGFR (L858R/T790M/C797S) (Homo sapiens, UniProt P00533, C797S/L858R/T790M)
- Construct: made in house; host or cells: Sf9 insect cells, baculovirus
- Sequence (P00533 with tags, fused parts or gaps T790M/C797S/L858R): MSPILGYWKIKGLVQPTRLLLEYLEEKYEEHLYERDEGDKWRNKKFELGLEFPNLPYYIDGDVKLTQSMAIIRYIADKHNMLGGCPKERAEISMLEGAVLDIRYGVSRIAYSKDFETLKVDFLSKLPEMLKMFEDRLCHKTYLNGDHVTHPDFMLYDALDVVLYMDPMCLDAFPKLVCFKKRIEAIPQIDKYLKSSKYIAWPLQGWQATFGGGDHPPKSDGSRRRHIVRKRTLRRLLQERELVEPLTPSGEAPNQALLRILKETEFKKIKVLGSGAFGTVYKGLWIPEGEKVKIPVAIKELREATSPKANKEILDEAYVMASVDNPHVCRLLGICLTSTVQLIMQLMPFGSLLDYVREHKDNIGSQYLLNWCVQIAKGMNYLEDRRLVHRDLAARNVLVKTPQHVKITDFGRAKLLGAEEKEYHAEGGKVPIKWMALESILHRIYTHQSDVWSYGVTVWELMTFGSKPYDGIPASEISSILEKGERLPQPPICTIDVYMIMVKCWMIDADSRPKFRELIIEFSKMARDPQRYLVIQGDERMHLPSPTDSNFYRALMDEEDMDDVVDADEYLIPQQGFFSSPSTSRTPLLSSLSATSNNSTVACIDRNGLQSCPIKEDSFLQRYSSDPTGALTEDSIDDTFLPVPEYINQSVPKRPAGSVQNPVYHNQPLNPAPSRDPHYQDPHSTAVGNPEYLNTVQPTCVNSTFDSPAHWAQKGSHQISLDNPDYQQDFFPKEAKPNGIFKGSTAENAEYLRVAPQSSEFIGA
- procedureText: Inhibitory activity against EGFR (L858R/T790M/C797S) kinase
- Format: biochemical
- conditionSummary: Test Example 1, Table 3; ATP 0.5 μM
pIC50: −log10 of the molar value.
Please note: Met applies when pIC50 is 9 or greater, and Not met applies otherwise.

• C#Cc1c(-c2cnc3ccccc3c2)c2c(N)ncnc2n1C12CCC(NC(=O)c3ncco3)(CC1)C2 [Example 46] = Met
• C=CC(=O)N1CC[C@@H](n2cc(-c3cnc4ccccc4c3)c3c(N)ncnc32)C1 [Comparative Example A, reference compound] = Not met
• C#Cc1c(-c2cnc3ccccc3c2)c2c(N)ncnc2n1C12CCC(NC(=O)c3nccn3C)(CC1)C2 [Example 23] = Met
